- measured on: UniProt:P28062
- protocol: 20S proteasome assay, chymotrypsin-like activity (succinyl-Leu-Leu-Val-Tyr-AMC), i20S
- Type: biochemical
- particulars: LLVY substrate, 1 h continuous
assay metric: IC50 (nM)

Inquiry: For the compound C[C@H](NC(=O)CN1CCOCC1)C(=O)N[C@@H](Cc1ccc(N(C)C)cc1)C(=O)N[C@@H](Cc1ccccc1)C(=O)[C@@]1(C)CO1 , what IC50 is on record?
Reply text: 146

I: C[C@H](NC(=O)CN1CCOCC1)C(=O)N[C@@H](Cc1ccc(S(C)(=O)=O)cc1)C(=O)N[C@@H](CC1CCCC1)C(=O)[C@@]1(C)CO1
II: C[C@H](NC(=O)CN1CCOCC1)C(=O)N[C@@H](Cc1cccc(S(C)(=O)=O)c1)C(=O)N[C@@H](CC1CCCC1)C(=O)[C@@]1(C)CO1
Inquiry: Higher IC50 between I and II ? Selection: enter the item's label.
Reply text: II
(II: 707 nM, I: 108 nM)

meta.source: patent USRE47302E1
